# Test system: VDR homodimer (NR concentration 270 nM)
# assay-explanation: PBM binding z-score (relative to random genomic background probes); higher = stronger binding; sequences stand for … in GC…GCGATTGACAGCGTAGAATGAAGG
parameter: PBM binding z-score
Numbers only.

Some sequences with known PBM binding z-score results, for comparison:
TCTAGCAGGACAGAGGGTCACTCAAGAGGTACGG; 0.674
ACTAGCAGGCCAAGTTTGGGTAACTCAAACAAAG; -0.292
CAAACAAGGTCAAGAGGTCAAAGTCCGCTTCCCG; 5.74
ATCTCTAGGTAAAGTTCAATGAAAGATCGATAGA; 2.82
CGTTAAAGTTCAACTAAGGTAACGTAAAGCACGC; 3.94
CCAGAAAGGTGAGAAGGTAACTCAGCCTCGATTA; -0.238

Read the next record carefully.
Report PBM binding z-score for CCTAGTTGGTCAGGAGGTCAGACACCGGATATGA
1.42

###

# Tested on: PXR:RXRa (NR concentration 270 nM, RXRa partner concentration 90 nM)
# assay-explanation: PBM binding z-score (relative to random genomic background probes); higher = stronger binding; sequences stand for … in GC…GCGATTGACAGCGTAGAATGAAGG
parameter: PBM binding z-score
Give bare numbers.

CCGATTGGGGCAGAAAGGTTACCATACCATCCGG; 1.24

Below are 2 sequences. Give each one its PBM binding z-score.
1. CCTAGCAGGCCAATGTGGGTCACTCAAGGCTTGA
2. CCAGTCAGGTGAAAGGTAACTCAGTCTGGTACGC

1. 1.24
2. 0.577

###

# System: PPARg:RXRa 90nM:30nM, anti-RXR (NR concentration 90 nM, RXRa partner concentration 30 nM)
# assay-explanation: PBM binding z-score (relative to random genomic background probes); higher = stronger binding; sequences stand for … in GC…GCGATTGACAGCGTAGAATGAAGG
Outcome: 1 for PBM binding z-score of at least 0.4; -1 for anything lower.

Recorded results for 4 sequences are shown here.
ACAGACAGGTGAGTGAAGGAAACTCAGCTGGACG; -1
GCATATAGGTAATACAAGGTAAAAGTCCGATTGT; -1
TCTATTAGTTGAAGGGCCACCGACGAGTCCGTTT; 1
CCTTACGGGTCACTCCAGGTGATAGCATCGGAGT; 1

Hi, just wondering whether CAGACTGGGGCATAAGGTTACCATAAGCCAGCCC shows PBM binding z-score of 0.4 or higher.
1

Threshold query (PBM binding z-score >= 0.4) on TTACCAAGGTGAGTTGAGGTCGTTGATCCAACTC
1

Test whether the sequence AGTCAAAGTTCACTAGGTCACGTAAGATTCAGCT records PBM binding z-score of 0.4 or higher.
1

Does AGAATGAGTTTATTAAGATCAGGGAATTGCGGTC have a reported PBM binding z-score of at least 0.4?
-1

// inclusive: PBM binding z-score at least 0.4? input: CCTTACGGGTCACGAGTTTATAGCACGACGAGCG
1

Determine whether measured PBM binding z-score meets or exceeds 0.4 for CCTCGGATGACAACAGGAGGTCAGAGCTGCCAGA
-1

Check if PBM binding z-score >= 0.4 (inclusive). Item: TCTATTAGTTGATTACGGCAACCGAAACAGCGGA
1

###

# System: PPARg homodimer (NR concentration 180 nM)
# assay-explanation: PBM binding z-score (relative to random genomic background probes); higher = stronger binding; sequences stand for … in GC…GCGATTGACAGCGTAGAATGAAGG
Classification scheme (PBM binding z-score): L (below 0.3), M (0.3 to below 1), H (1 or more)

ATCGAAAGGTCGACGAGGTGAGTACACACCGTTT; H
TCTATTCGTTGATTAGGGCAACCGAAACAGCGGA; M
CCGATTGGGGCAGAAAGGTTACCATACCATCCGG; L
TCTATTAGATGATTAGGGCAACCGAAACAGCGGA; L
CCGAGTAGGTTATGGCGCATTCAGGCAACGGTGA; M
CGTACTAGGTCAGAACAGGACAGTGAAGGATGAT; H
TCTCGGAGGACACGAAGGTCAGTGCTTTCCAGAG; M
TCTTGTAGATCAAAGGTTAAGAACGCCGAAGCCT; H
CTTCCAAGGTCAATGCTAGGTCAGTGAAAGCATT; H
CCTACTGCGCCAAAAAGGTCATTGATGCCGATAA; H

Which category fits this record: TCAGACAGGTGAAGCTAACTCAGGTACGCAGTCG
M

Each sequence maps to one class by PBM binding z-score. Which class for TCAGACAGGTGAAGGTAACTCTGGTACGCAGTCG ?
L

Please report the category associated with CGAACTAGGTCAAGGACAGTGTATCTCCGCACGC , nothing else.
H

###

# Test system: PPARg homodimer (NR concentration 180 nM)
# assay-explanation: PBM binding z-score (relative to random genomic background probes); higher = stronger binding; sequences stand for … in GC…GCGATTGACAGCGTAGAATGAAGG
Assign label 1 whenever PBM binding z-score does not fall below 1; assign label 0 whenever it does.

Known results for sequences:
TCTTGTAGATCAGGAGGTTAAGAAAGCTGGCCAA; label 0
CTCGAATGGTCGGTTGAGGTGAGTATACGGATAA; label 0
TCTAGTTGGTCAAAGGTCACACGCTCGAAATGCG; label 1
TCTCGGAGGACACGAAAGGTCAGAGCGCGACATC; label 1
ATCGACAGGTCGAAGGTGAGTATACCCACCCGAA; label 0

Is it the case that CCTAGTTGGTCAAGGTCACACTCGCTATAGGTAC has PBM binding z-score reaching or exceeding 1?
label 1

###

# Test system: LXRb:RXRa (NR concentration 270 nM, RXRa partner concentration 90 nM)
# assay-explanation: PBM binding z-score (relative to random genomic background probes); higher = stronger binding; sequences stand for … in GC…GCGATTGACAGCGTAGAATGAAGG
Note to self: values exactly at 1 are Fulfilled. So PBM binding z-score at or above 1 is Fulfilled, below is Not fulfilled.

Recorded results for 2 sequences are shown here.
ACAGACAGGTGATGATGGTAACTCAGGCTATCAT; Not fulfilled
GCTTGTAGATCAAGGTGAAGAAAGACTAAGCTAA; Not fulfilled

Does the reported PBM binding z-score for CAACCTAGGTCAAAGGTCAAAGTCGAGCCAACCA fall at or above the 1 mark?
Fulfilled

Check if PBM binding z-score >= 1 (inclusive). Item: AGAATGAGGTTATCAAGATCAGGGAATTGCGGTC
Fulfilled

###

# Test system: THRa homodimer (NR concentration 90 nM)
# assay-explanation: PBM binding z-score (relative to random genomic background probes); higher = stronger binding; sequences stand for … in GC…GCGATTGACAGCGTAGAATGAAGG
parameter: PBM binding z-score
Numbers only.

Reference set, count: 5
TCTTGTAGATCAAGCAGGTAAAGAAAGCCTGAGT; -0.499
ACACGGAGGACAAAGGTCAGAGCTACGCCAGTGA; 0.702
CCTCGGAGGACAGACGGTCAGAGCTGTCCGCTTT; -0.156
CCAACTAGGTCAAAGGTCAAAGTCGAGCCAACCA; 1.79
CCTACTGGGCCAAAAAGGTCATTGAAGCCGATAA; 0.418

Moving on to the next sequence.
Identify measured PBM binding z-score associated with CGAACTAGGTCAGAACAGGAGAGTGAAGGATGAT
0.0817

###

# Tested on: RARa homodimer (NR concentration 270 nM)
# assay-explanation: PBM binding z-score (relative to random genomic background probes); higher = stronger binding; sequences stand for … in GC…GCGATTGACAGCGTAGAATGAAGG
# label = 1 if PBM binding z-score >= 0.4 else -1

CGTCAAAGTTCAAGGTAACGTACCAGAAAGCAGC; 1

Does the sequence TAGCCTAGGTCATGGACCAGTATACCACGCGAAC have recorded PBM binding z-score that is 0.4 or more?
-1

PBM binding z-score >= 0.4 for ACTATTAGTTGAGACGGGGGCAACCGATAGGTTG ?
1

Test whether the sequence CCGACTGGGGCAAAGTTACCATAACGCACAGCCA records PBM binding z-score of 0.4 or higher.
-1

###

# Test system: PXR homodimer (NR concentration 270 nM)
# assay-explanation: PBM binding z-score (relative to random genomic background probes); higher = stronger binding; sequences stand for … in GC…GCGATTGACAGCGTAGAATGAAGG
Please enter MET where PBM binding z-score is greater than or equal to 2, and NOT MET where it is lower.

Reference set (5 entries):
ATATGTAGGTTAAGGGTTATTCAGGTTGGTTCGC; NOT MET
CCAAGTTGGTCAGGAGGTCACACACCGGATATGA; NOT MET
AACTCTAGGTAAAAGTTCAGTGAATCCCGAGGAT; NOT MET
GGTACGAGGGCATTCGAGTTGATAGCATGGCGAT; NOT MET
CGTCCACGGTCAGAGAGGTCAGTGAATGCCGAGT; MET

Lab note: next sequence to report on.
Test whether the sequence AGAATGAGGTTATTAAGATCAGGTAATTGCGGTC records PBM binding z-score of 2 or higher.
NOT MET
